The origin of these recorded values is the CheMixHub drug solubility set.

test: xn = mol fraction of the nth substance listed, in the solute-free solvent; conditions: 298.15 K; x2 = 0.2
Parameter: solubility (g/100 g solution). Scope: all listed entries.

>  <compound>
CCCCN1CCCCC1C(=O)Nc1c(C)cccc1C.Cl.O (centres undefined) + CCO + O

>  <solubility (g/100 g solution)>
3.37

$$$$
>  <compound>
O=C(CC(=O)c1ccccc1)c1ccccc1 + CO + O

>  <solubility (g/100 g solution)>
0.0488

$$$$
>  <compound>
O=c1ccc2ccccc2o1 + CC(C)=O + O

>  <solubility (g/100 g solution)>
12.3

$$$$
>  <compound>
O=C(CC(=O)c1ccccc1)c1ccccc1 + CCO + O

>  <solubility (g/100 g solution)>
0.0786

$$$$
>  <compound>
CC1(C)SC2C(NC(=O)C(NC(=O)N3CCNC3=O)c3ccccc3)C(=O)N2C1C(=O)O (centres undefined) + CCO + CC(C)O

>  <solubility (g/100 g solution)>
0.191

$$$$
>  <compound>
O=c1ccc2ccccc2o1 + CO + O

>  <solubility (g/100 g solution)>
0.922

$$$$
>  <compound>
CCOC(=O)C1=CC2(CC)CCCN3CCc4c(n1c1ccccc41)C32 (centres undefined) + CCO + O

>  <solubility (g/100 g solution)>
0.0153

$$$$
>  <compound>
CCCCN1CCCCC1C(=O)Nc1c(C)cccc1C.Cl.O (centres undefined) + CO + O

>  <solubility (g/100 g solution)>
4.11

$$$$
>  <compound>
O=C(CC(=O)c1ccccc1)c1ccccc1 + CC(C)O + O

>  <solubility (g/100 g solution)>
0.222

$$$$
